B1: INTS4 (parent)
chain: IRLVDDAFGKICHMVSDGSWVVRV

- Variants of: B1
- protocol.details: protein stability index of a GFP-peptide fusion (GPS, HEK-293T) (PSI 1-6); higher = more stable;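 note: lentivirally expressed fusions sorted by FACS into six bins by GFP to DsRed ratio, PSI derived from sequencing read proportions per bin multiplied by bin number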
- condition.parameters: c terminus: a fixed tail appended
Entry flag: Met if protein stability index reaches 2; Not met if it does not.

mutations | class.label
D17E | Met
V15N | Met
F8W | Met
V24N | Not met
S19V | Met
V22Y | Met
D17C | Met
H13S | Not met
S19L | Met
K10P | Met

Origin of the recorded values: the supplement of paper PMC10567573
